Target: σ2 receptor (Rattus norvegicus, UniProt Q5U3Y7)
Sequence (Q5U3Y7 1-176): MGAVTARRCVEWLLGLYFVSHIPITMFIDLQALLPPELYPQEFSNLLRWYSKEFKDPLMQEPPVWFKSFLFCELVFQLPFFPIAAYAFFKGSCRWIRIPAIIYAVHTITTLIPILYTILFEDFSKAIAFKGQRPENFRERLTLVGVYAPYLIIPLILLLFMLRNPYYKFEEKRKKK

{"columns": ["molecule", "Ki"],
 "data": [
  ["CN(C)c1ccc2c(c1)C(=O)N(CCCCCCOc1cccc3c1CCCC3CCC(=O)N1CCN(C3CCCCC3)CC1)C2=O (stereo not shown)", "38.4 nM"]
]}
